# System: SF-539 CNS
# Measurement Protocol: NCI tumour cell line growth inhibition, 48 h
Below: a set of entries, each annotated with reported TGI.

{"Compound": "CCCN1C/C(=C\\c2ccc(O)c(OC)c2)C(=O)/C(=C/c2ccc(O)c(OC)c2)C1", "TGI": "> 100 µM"}
{"Compound": "S=C(Nc1ccccc1)c1ccc(CN2CCCCC2)s1", "TGI": "> 100 µM"}
{"Compound": "C=[CH][Sn]([CH]=C)([S]c1cccc2cccnc12)[S]c1cccc2cccnc12", "TGI": "1.01 µM"}
{"Compound": "[2H]c1nc(C)nc([2H])c1-c1cc(NC[C@@H](C)c2cccc3c(C(=O)NC)ccnc23)ncn1", "TGI": "> 100 µM"}
{"Compound": "CCC(N)(C(=O)O)C(C)C (stereo not given)", "TGI": "> 100 µM"}
{"Compound": "CCCCNC(=O)c1cc(S(=O)(=O)n2cc[nH]c2=O)c(SC)cc1Cl", "TGI": "> 100 µM"}
{"Compound": "CC1=C(C(=O)CC(=O)C(=O)Nc2ccc(Cl)cc2C)Sc2ccccc2N1", "TGI": "> 100 µM"}
{"Compound": "c1ccc2c(c1)Oc1cccc3cccc-2c13", "TGI": "> 100 µM"}
{"Compound": "Cc1cc(N(CCC#N)CCC#N)ccc1/C=N/NC(=O)c1ccccc1", "TGI": "47.5 µM"}
{"Compound": "C/C(=C\\COP(=O)(O)OP(=O)(O)O)CCCOCc1ccccc1", "TGI": "> 100 µM"}
{"Compound": "Cc1ccc(C(=O)Nc2ccc(S(=O)(=O)O)c3cc(S(=O)(=O)O)cc(S(=O)(=O)O)c23)cc1N", "TGI": "> 100 µM"}
{"Compound": "COc1cc(OC)c(/C=C/c2cc[n+](C)c3ccccc23)c(OC)c1", "TGI": "10.9 µM"}
{"Compound": "CCOC(=O)/C(C#N)=C\\C=C(\\Sc1nc2ccccc2s1)c1ccc(Cl)cc1", "TGI": "40.8 µM"}
{"Compound": "O=C(OCC1OC(n2cc(C(F)(F)F)c(=O)[nH]c2=O)CC1OC(=O)c1ccc([N+](=O)[O-])cc1)c1ccc([N+](=O)[O-])cc1 (stereo not given)", "TGI": "> 100 µM"}
{"Compound": "Cc1[nH]n(-c2ncc(C(=O)O)c(=O)[nH]2)c(=O)c1CCO", "TGI": "> 100 µM"}

----------
# System: NCI-H226 lung
# Measurement Protocol: NCI tumour cell line growth inhibition, 48 h
Quantity Name: TGI

{"Compound": "O=C(c1ccccc1)c1ccc2cccc(OC3OC(CO)C(O)C(O)C3O)c2n1 (stereo not drawn)", "Test Value": "> 100 µM"}
{"Compound": "CC(=O)/C=c1\\[nH]/c(=C\\C=C\\c2ccccc2)c(=O)n1/C=C1\\C(=O)Oc2ccccc2C1=O", "Test Value": "> 100 µM"}
{"Compound": "O=C1/C=C/[C@@H](O)[C@@H]2C[C@@H](O)C[C@H]2/C=C/CCC[C@H](CCc2ccccc2)O1", "Test Value": "0.0748 µM"}

----------
Below: a set of entries, each annotated with reported TGI.
# Test system: SK-MEL-2 melanoma
# Measurement Protocol: NCI tumour cell line growth inhibition, 48 h

{"Compound": "CC(=O)OC12c3ccccc3C1CCCC21OCCCO1 (configuration not stated)", "Study Target": "SK-MEL-2 melanoma", "TGI": "> 100 µM"}
{"Compound": "Cc1nn2c(/C=N/N=C(N)N)c(-c3ccc(Cl)c([N+](=O)[O-])c3)nc2s1", "Study Target": "SK-MEL-2 melanoma", "TGI": "6.46 µM"}
{"Compound": "CSC1N=CNc2c1sc(=S)n2-c1ccccc1 (configuration not stated)", "Study Target": "SK-MEL-2 melanoma", "TGI": "> 100 µM"}
{"Compound": "Clc1ccc(Cn2c(CN3CCCC3)nc3ccccc32)cc1", "Study Target": "SK-MEL-2 melanoma", "TGI": "34.6 µM"}
{"Compound": "Cc1ccc(C(=O)Nc2ccc(S(=O)(=O)O)c3cc(S(=O)(=O)O)cc(S(=O)(=O)O)c23)cc1N", "Study Target": "SK-MEL-2 melanoma", "TGI": "> 100 µM"}
{"Compound": "Cc1cc(=O)n2nnc3c4ccccc4ccc3n12", "Study Target": "SK-MEL-2 melanoma", "TGI": "30.6 µM"}
{"Compound": "COc1cc(C(=O)N(C)N(C)C)cc(OC)c1OC", "Study Target": "SK-MEL-2 melanoma", "TGI": "> 10 µM"}
{"Compound": "CC1(C)Oc2ccccc2OC1O (configuration not stated)", "Study Target": "SK-MEL-2 melanoma", "TGI": "> 100 µM"}
{"Compound": "CC1=C(C(=O)CC(=O)C(=O)Nc2ccc(Cl)cc2C)Sc2ccccc2N1", "Study Target": "SK-MEL-2 melanoma", "TGI": "> 100 µM"}
{"Compound": "COC(=O)C(Cc1ccc(OC)cc1O)NC(=O)OC(C)(C)C (configuration not stated)", "Study Target": "SK-MEL-2 melanoma", "TGI": "> 100 µM"}
{"Compound": "CC(C)N(CCCNC(=O)Nc1ccc(C(C)(C)C)cc1)C[C@H]1O[C@@H](n2ccc3c(N)ncnc32)[C@H](O)[C@@H]1O", "Study Target": "SK-MEL-2 melanoma", "TGI": "> 100 µM"}
{"Compound": "C[CH2][Pb]([CH2]C)([CH2]C)[O]C(=O)COC", "Study Target": "SK-MEL-2 melanoma", "TGI": "0.879 µM"}

----------
# Test system: UO-31 renal
# Measurement Protocol: NCI tumour cell line growth inhibition, 48 h
Below: a set of entries, each annotated with reported TGI.

{"Molecule": "COc1cc(S(=O)(=O)Nc2nc(-c3ccc(N4C(=O)/C(=C\\c5cccs5)N=C4c4ccccc4)cc3)cs2)ccc1Cl", "Study Target": "UO-31 renal", "TGI": "> 100 µM"}
{"Molecule": "CCCCCCCCCCCCCC(=O)NCO", "Study Target": "UO-31 renal", "TGI": "> 100 µM"}
{"Molecule": "CC12CCC([C@H](Nc3cc(C(F)(F)F)cc(C(F)(F)F)c3)C1=O)C2(C)C (stereo partly specified)", "Study Target": "UO-31 renal", "TGI": "> 100 µM"}
{"Molecule": "Cc1c(C(=O)O)n2c(C)nnc2c2ccccc12", "Study Target": "UO-31 renal", "TGI": "> 100 µM"}
{"Molecule": "CCCCCCN1CCc2c(C)c(C#N)c3nc4ccccc4n3c21", "Study Target": "UO-31 renal", "TGI": "> 100 µM"}
{"Molecule": "Cc1cccc2c(NCCCN(C)C)c3c([N+](=O)[O-])ccc(C)c3nc12", "Study Target": "UO-31 renal", "TGI": "0.492 µM"}
{"Molecule": "CC1OC(O[C@H]2CC[C@]3(C)[C@H]4CC=C5[C@@H]6[C@@H](C)[C@H](C)CC[C@]6(C(=O)OC6OC(CO)C(O)C(O)C6O)CC[C@@]5(C(=O)O)[C@]4(C)CC[C@H]3C2(C)C)C(O)C(O)C1O (stereo partly specified)", "Study Target": "UO-31 renal", "TGI": "> 100 µM"}
{"Molecule": "COc1ccc(-c2nc(Sc3c([N+](=O)[O-])ncn3C)n[nH]2)cc1", "Study Target": "UO-31 renal", "TGI": "> 100 µM"}
{"Molecule": "CC/C=C/C(CC)C/C(C)=C\\[C@]1(CC)C[C@H](CC)[C@H](CC(=O)O)OO1 (stereo partly specified)", "Study Target": "UO-31 renal", "TGI": "0.0368 µM"}
{"Molecule": "NCCCCCn1c2c(c3ccccc3c1=O)C(=O)c1ccccc1-2", "Study Target": "UO-31 renal", "TGI": "1.53 µM"}
{"Molecule": "O=C(Cc1ccc(F)cc1)NC1=C(Cl)C(=O)c2ccccc2C1=O", "Study Target": "UO-31 renal", "TGI": "7.88 µM"}

----------
# Tested on: NCI-H460 lung
# Measurement Protocol: NCI tumour cell line growth inhibition, 48 h

{"Structure Smiles": "c1ccc(-c2nnc(CCCCCCCCc3nnc(-c4ccccc4)o3)o2)cc1", "TGI": "> 100 µM"}
{"Structure Smiles": "CC(=O)Nc1ccc(C2C(C(=O)Nc3ccccc3)=C(C)NC(C)=C2C(=O)Nc2ccccc2)cc1", "TGI": "> 100 µM"}
{"Structure Smiles": "COc1ccc(C(=O)c2sc3nc4c(cc3c2N)CCCC4)cc1OC", "TGI": "13.2 µM"}
{"Structure Smiles": "Cc1ccc(C(=O)Nc2ccc(S(=O)(=O)O)c3cc(S(=O)(=O)O)cc(S(=O)(=O)O)c23)cc1N", "TGI": "> 100 µM"}
